// data source = patent US20230158141A1

Target: T1, IL-10R2-Fc/His (UniProt Q08334 20-220, limits assumed)
T1 sequence (looked up): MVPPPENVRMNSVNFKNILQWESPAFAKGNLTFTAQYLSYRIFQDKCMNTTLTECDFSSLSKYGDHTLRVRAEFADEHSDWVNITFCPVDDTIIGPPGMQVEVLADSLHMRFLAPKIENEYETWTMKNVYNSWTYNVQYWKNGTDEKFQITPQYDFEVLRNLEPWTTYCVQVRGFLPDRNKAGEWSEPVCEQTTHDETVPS
Assay: ELISA, IL-10R2-Fc/His coated
Assign Binding recovery (>60%) to each entry below.
Output spec: scalar in %, unitless text.

Give the measured Binding recovery (>60%) of IL-10 Thr100Cys-R4-7 (ligand, human, UniProt P22301 19-178, looked up, R4-7 on Cys 100, mature) SPGQGTQSENSCTHFPGNLPNMLRDLRDAFSRVKTFFQMKDQLDNLLLKESLLEDFKGYLGCQALSEMIQFYLEEVMPQAENQDPDIKAHVNSLGENLKCLRLRLRRCHRFLPCENKSKAVEQVKNAFNKLQEKGIYKAMSEFDIFINYIEAYMTMKIRN .
90.7

Give the measured Binding recovery (>60%) of IL-10 Ser31Cys-R4-2 (ligand, human, UniProt P22301 19-178, looked up, R4-2 on Cys 31, mature) SPGQGTQSENSCTHFPGNLPNMLRDLRDAFCRVKTFFQMKDQLDNLLLKESLLEDFKGYLGCQALSEMIQFYLEEVMPQAENQDPDIKAHVNSLGENLKTLRLRLRRCHRFLPCENKSKAVEQVKNAFNKLQEKGIYKAMSEFDIFINYIEAYMTMKIRN .
87.4

Give the measured Binding recovery (>60%) of IL-10 Asp25Cys-R4-11 (ligand, human, UniProt P22301 19-178, looked up, R4-11 on Cys 25, mature) SPGQGTQSENSCTHFPGNLPNMLRCLRDAFSRVKTFFQMKDQLDNLLLKESLLEDFKGYLGCQALSEMIQFYLEEVMPQAENQDPDIKAHVNSLGENLKTLRLRLRRCHRFLPCENKSKAVEQVKNAFNKLQEKGIYKAMSEFDIFINYIEAYMTMKIRN .
91.5
